- ASSAYED TARGET: T1, full length human GPC3 His (human, UniProt P51654 25-559, limits assumed)
- T1 construct: also called full length human GPC3 protein; not shown: His tag
- MEASUREMENT DESCRIPTION: SPR (Biacore T200), full length human GPC3 His immobilised, IgG1 in solution
pKd: −log10 of the molar value.
Lab note: anything with pKd at or over 10 counts as 1; the rest go in 0.

BINDER	CLASS ASSIGNMENT
anti-human GPC3 IgG1 antibody clone 121 (antibody, V domains shown) VH: CQSVEESGGRLVTPGTPLTLTCTVSGFSLSTYWMTWVRQAPGKGLEWIGIINPAGSAYYASWAKGRFTISKTSSATVDLKMTSLTAVDTATYFCAGGGGMDPWGPGTLVTVSS VL: DPVLTQTPSSVSAAVGGTVTISCQSSQNIIKDYLSWFQQKPGQPPKRLIYKTSTLPSGVPSRFKGSGSGTEFTLTISDLECDDAATYYCAASYSGNIYVFGGGTEVVVKR	0
anti-human GPC3 IgG1 antibody clone 74 (antibody, V domains shown) VH: QCQSVEESGGRLVTPGTPLTLTYTVSGFSLNNYDMSWVRQAPGKGLQYIGWINSGGTAYYASWAKGRFTISKTSSTTVDLKMTSPTTEDTATYFCARHRYGYYGDIWGPGTLVTVSL VL: DPVLTQTPSSVSAAVGGTVTINCQSSQNVYNNNRLAWYQQKLGQPPKLLIYFASKLASGVPSRFSGSGSGTQFTLTISGVQCDDAATYYCAGGYNTIVDNGFGGGTEVVVKR	1
anti-human GPC3 IgG1 antibody clone 41 (antibody, V domains shown) VH: CQSVEESGGRLVTPGTALTLTCTVSGFSLSTYWMTWVRQAPGKGLEWIGIINPGGSAYYASWAKGRFTISKASSATVDLKMTSLTAADTATYFCAGGGGMDPWGPGTLVTVSS VL: DPVLTQTPSSVSAAVGGTVSISCQSSQSIIKNYLSWFQHKPGQPPKRLIYRASTLPSGVPSRFEGSGSGTEFTLTINDLECDDAATYYCAASYSDNIYVFGGGTEVVVKR	0

Then there is this binder:
Dear colleague, could you confirm whether anti-human GPC3 IgG1 antibody clone 49 (antibody, V domains shown) VH: CQSVEESGGRLVTPGTPLTLTCTVSGFSLSTYWMTWVRQAPGKGLEWIGIINPSGSAYYASWAKGRFTISKTSSATVDLKMTSLTAADTATYFCAGGGGMDPWGPGTLVTVSS VL: DPVLTQTPSSVSAAVGGTVSISCQSSQSIVKNYLSWFQQKPGQPPKRLIYKASTLPSGVPSRFKGSGSGTEFTLTISDLECDDAATYYCAASYSDNIYVFGGGTEVVVKR has pKd at or above 10? 0
